Data provenance is patent US20200054723A1.

# study_system: T1, recombinant human Siglec-8 extracellular domain (ECD) (human, UniProt Q9NYZ4 17-363)
# T1 construct: extracellular domain; also called Siglec-8 ECD; full Siglec-8 ECD
# T1 sequence (Q9NYZ4 17-363): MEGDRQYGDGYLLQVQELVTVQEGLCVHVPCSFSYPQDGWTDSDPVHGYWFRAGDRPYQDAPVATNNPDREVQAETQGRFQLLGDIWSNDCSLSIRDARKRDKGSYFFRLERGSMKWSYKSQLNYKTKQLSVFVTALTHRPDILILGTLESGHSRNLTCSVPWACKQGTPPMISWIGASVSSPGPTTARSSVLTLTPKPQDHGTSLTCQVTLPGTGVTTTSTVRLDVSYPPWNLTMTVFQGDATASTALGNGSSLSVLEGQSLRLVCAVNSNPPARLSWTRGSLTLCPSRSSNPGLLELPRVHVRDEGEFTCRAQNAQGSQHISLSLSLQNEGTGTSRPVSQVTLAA
# measurement_description: ELISA, coated Siglec-8 ECD
The following binders are listed with their measured EC50 values.
Response body: numeric value in nM, unit text excluded.

The examples below pair each entry with its known result.
binder="RHE Y-VKFmut (antibody, human IgG1, V domains shown, human IgG1/kappa) VH: EVQLVESGGGLVQPGGSLRLSCAASGFSLTIYGAHWVRQAPGKGLEWVGVIWAGGSTNYNSALMSRFTISKDNSKNTVYLQMNSLRAEDTAVYYCARDGSSPYYYSMEVWGQGTTVTVSS VL: EIVLTQSPATLSLSPGERATLSCSATSSVSYMHWFQQKPGQAPRLLIYSTSNLASGIPARFSGSGSGTDYTLTISSLEPEDFAVYYCQQRSSYPYTFGPGTKLDIK" endpoint_name=EC50 meas_value=0.398
binder="HBKD (antibody, human IgG1, V domains shown, human IgG1/kappa) VH: EVQLVESGGGLVQPGGSLRLSCAVSGFSLTIYGAHWVRQAPGKGLEWLGVIWAGGSTNYNSALMSRLSISKDNSKNTVYLQMNSLRAEDTAVYYCARDGSSPYYYSMEYWGQGTTVTVSS VL: EIVLTQSPATLSLSPGERATLSCSATSSVSYMHWFQQKPGQAPRLWIYSTSNLASGIPARFSGSGSGTDFTLTISSLEPEDFAVYYCQQRSSYPFTFGPGTKLDIK" endpoint_name=EC50 meas_value=0.039
binder="HGKG (antibody, human IgG1, V domains shown, human IgG1/kappa; also called HGHG) VH: EVQLVESGGGLVQPGGSLRLSCAASGFSLTIYGAHWVRQAPGKGLEWVSVIWAGGSTNYNSALMSRFSISKDNSKNTVYLQMNSLRAEDTAVYYCARDGSSPYYYSMEYWGQGTTVTVSS VL: EIVLTQSPATLSLSPGERATLSCSATSSVSYMHWYQQKPGQAPRLLIYSTSNLASGIPARFSGSGSGTDFTLTISSLEPEDFAVYYCQQRSSYPFTFGPGTKLDIK" endpoint_name=EC50 meas_value=0.254

Find the recorded EC50 belonging to HGKD (antibody, human IgG1, V domains shown, human IgG1/kappa) VH: EVQLVESGGGLVQPGGSLRLSCAASGFSLTIYGAHWVRQAPGKGLEWVSVIWAGGSTNYNSALMSRFSISKDNSKNTVYLQMNSLRAEDTAVYYCARDGSSPYYYSMEYWGQGTTVTVSS VL: EIVLTQSPATLSLSPGERATLSCSATSSVSYMHWFQQKPGQAPRLWIYSTSNLASGIPARFSGSGSGTDFTLTISSLEPEDFAVYYCQQRSSYPFTFGPGTKLDIK and report it.
0.047

Find the recorded EC50 belonging to HDKB (antibody, human IgG1, V domains shown, human IgG1/kappa) VH: EVQLVESGGGLVQPGGSLRLSCAASGFSLTIYGAHWVRQAPGKGLEWLSVIWAGGSTNYNSALMSRFTISKDNSKNTVYLQMNSLRAEDTAVYYCARDGSSPYYYSMEYWGQGTTVTVSS VL: EIILTQSPATLSLSPGERATLSCSATSSVSYMHWFQQKPGQAPRLWIYSTSNLASGVPARFSGSGSGTDYTLTISSLEPEDFAVYYCQQRSSYPFTFGPGTKLDIK and report it.
0.055

Find the recorded EC50 belonging to HCKA (antibody, human IgG1, V domains shown, human IgG1/kappa) VH: EVQLVESGGGLVQPGGSLRLSCAVSGFSLTIYGAHWVRQAPGKGLEWVSVIWAGGSTNYNSALMSRFTISKDNSKNTVYLQMNSLRAEDTAVYYCARDGSSPYYYSMEYWGQGTTVTVSS VL: EIVLTQSPATLSLSPGERATLSCSATSSVSYMHWFQQKPGQAPRLLIYSTSNLASGIPARFSGSGSGTDFTLTISSLEPEDFAVYYCQQRSSYPFTFGPGTKLDIK and report it.
0.056
